tested on: 786-0 renal; test: NCI tumour cell line growth inhibition, 48 h; in the data active = GI50 below about 0.43 µM; inactive = the rest
Possible outcomes: 1.0 = active, 0.0 = inactive

>>> cat("Cc1cc(C)nc(SC2=C(Nc3cccc(Cl)c3C)C(=O)N(Cc3ccccc3)C2=O)n1")
0.0
>>> cat("Nc1nc(N)c2nc(CNc3ccc(C(=O)NC(CCCNC(=O)c4ccccc4C(=O)O)C(=O)O)cc3)cnc2n1 (configuration not stated)")
1.0
>>> cat("COc1cnc2c(c1)C(=O)c1c-2n(CCCN2CCCC2)c(=O)c2cc(F)ccc12")
1.0
>>> cat("CC1=C[S+](c2ccccc2)c2cccc3cc4ccccc4c1c23 (configuration not stated)")
1.0
>>> cat("CCC(C(=O)[O-])C(=O)[O-].CCC(C(=O)[O-])C(=O)[O-].N.N.NCCCCCCN.[Pt+4].[Pt+4]")
0.0
>>> cat("O=C1c2c(O)cc(O)cc2OC(c2ccc(O)cc2O)C1O (configuration not stated)")
0.0
>>> cat("CS(=O)(=O)CCNCc1ccc(-c2ccc3ncnc(Nc4ccc(OCc5ccccc5)c(Cl)c4)c3c2)o1")
0.0
>>> cat("O=C(c1ccccc1)c1nc2ccc(C(F)(F)F)cc2[n+]([O-])c1C(F)(F)F")
0.0
>>> cat("CCOC(=O)Nc1ccc(-c2nc(-c3cccc(OC)c3)c(-c3ccnc(Br)c3)[nH]2)cc1")
0.0
>>> cat("CC(=O)[O][Hg][c]1ccccc1")
0.0
>>> cat("COc1ccc(C(=O)COc2cccc(/C=C3\\CSc4ccc(C)cc4C3=O)c2)cc1")
0.0
>>> cat("C=C1C(=O)O[C@H]2[C@H]1CC/C(COC(=O)c1ccc(C#N)cc1)=C\\CC[C@@]1(C)O[C@@H]21")
0.0
>>> cat("O=C1CCc2c(sc3[nH]c(=S)n(Cc4ccccc4)c(=O)c23)C1")
0.0
>>> cat("CC(=O)[O-].O=C([CH-]C(=O)c1ccccc1)c1ccccc1.O=C([CH-]C(=O)c1ccccc1)c1ccccc1.[Y+3]")
0.0
>>> cat("CCCCC#CC#Cc1cccc(=O)o1")
0.0
>>> cat("O=[N+]([O-])c1ccc2ncccc2c1Cl")
0.0
>>> cat("CCOC(=O)c1cc2c(n1Cc1ccccc1)-c1oncc1CC2")
0.0
